Where do the numbers come from? From ChEMBL document CHEMBL1132697.

// Interstitial collagenase (Homo sapiens) Ki records
Form entry: value (nM) — number only.

Q: Look up Ki for this compound: COc1ccc(S(=O)(=O)C(CCc2ccccc2)CC(=O)NO)cc1 (stereo not given)
Ans: 4000

Q: Same question for COc1ccc(S(=O)(=O)C(CC(=O)NO)Cc2ccccc2)cc1 (stereo not given) please.
Ans: 1000

Q: Same question for "COc1ccc(S(=O)(=O)[C@H](CCCCc2ccccc2)[C@@H](C)C(=O)NO)cc1" please.
Ans: 2000

Q: Same question for COc1ccc(S(=O)(=O)C(CCCc2ccccc2)CC(=O)NO)cc1 (stereo not given) please.
Ans: 2000

====

Answer each item with its documented Ki.
Target: 72 kDa type IV collagenase (Homo sapiens, UniProt P08253)
Sequence (P08253 whole entry): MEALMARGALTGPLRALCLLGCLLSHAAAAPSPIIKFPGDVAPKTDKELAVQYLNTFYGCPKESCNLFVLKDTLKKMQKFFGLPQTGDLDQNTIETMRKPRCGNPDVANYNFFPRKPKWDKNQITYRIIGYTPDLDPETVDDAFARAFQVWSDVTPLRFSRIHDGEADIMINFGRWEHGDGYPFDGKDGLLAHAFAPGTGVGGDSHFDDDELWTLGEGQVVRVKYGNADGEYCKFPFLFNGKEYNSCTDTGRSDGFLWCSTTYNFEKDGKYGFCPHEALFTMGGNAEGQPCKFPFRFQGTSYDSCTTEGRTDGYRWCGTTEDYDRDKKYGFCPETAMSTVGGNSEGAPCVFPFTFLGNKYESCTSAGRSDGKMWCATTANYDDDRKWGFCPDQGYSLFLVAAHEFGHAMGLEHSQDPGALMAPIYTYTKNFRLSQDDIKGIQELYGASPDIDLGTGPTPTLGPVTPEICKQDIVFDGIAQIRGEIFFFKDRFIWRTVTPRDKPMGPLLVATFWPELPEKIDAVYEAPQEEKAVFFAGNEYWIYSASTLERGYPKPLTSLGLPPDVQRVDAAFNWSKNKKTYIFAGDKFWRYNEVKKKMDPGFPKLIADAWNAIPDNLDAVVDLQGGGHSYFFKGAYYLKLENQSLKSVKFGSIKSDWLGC
Form entry: value (nM) — number only.

Q: Find Ki (72 kDa type IV collagenase (Homo sapiens, UniProt P08253)) for the entry COc1ccc(S(=O)(=O)C(C)(CCCCc2ccccc2)CC(=O)NO)cc1 (configuration not stated)
Ans: 50

Q: Same question for "COc1ccc(S(=O)(=O)[C@H](CCCCc2ccccc2)[C@@H](C)C(=O)NO)cc1" please.
Ans: 10
